assay: ATG_PBREM_CIS: Attagene CIS-FACTORIAL HepG2 Assay for human Phenobarbital-responsive Enhancer Module (PBREM) (AID 2282955); conditions: HepG2 PBREM cis-reporter, Attagene multiplexed transcription; actives raise or lower the signal
The source made the active and inactive calls. How the source made its calls: active means hit-call score of the fitted dose curve at least 0.9, where 1 is the maximum; inactive means score below 0.9.
Permitted responses: 1 = active, -1 = inactive

Input: Which outcome was entered for the compound NC(=O)N1C(=O)C(C(=O)c2cc(Cl)cs2)c2cc(F)c(Cl)cc21 (stereo not drawn) in this test?
Output: 1

Input: Which outcome was entered for the compound CN(C)C=O in this test?
Output: -1

Input: Which outcome was entered for the compound CCCCC(CC)COC(=O)CCCCC(=O)OCc1ccccc1 (stereo not drawn) in this test?
Output: -1

Input: Which outcome was entered for the compound O=C(O)c1ccccc1C(c1ccc(O)cc1)c1ccc(O)cc1 in this test?
Output: -1

Input: Which outcome was entered for the compound Nc1cccc2c(N)cccc12 in this test?
Output: -1
